- Protocol Notes: Plasma pharmacokinetics
- Format: in vivo, human
- Protocol Conditions: human, plasma, oral, 50 mg/day, AUC0-24, S1 50 mg/day, Day 7, mean±SD, n=3
Measured Metric: AUC(0-t) (µM·h)
Answer in µM·h, number only, no unit symbol.

Query CNC(=O)c1nn(C)c2c1C(C)(C)Cc1cnc(Nc3ccc(N4CCN(C)CC4)cc3)nc1-2 [PHA-848125AC] yields AUC(0-t) of 6.8

* * *

- Protocol Notes: Plasma pharmacokinetics
- Assay type: in vivo, human
- Protocol Conditions: human, plasma, oral, 300 mg/day, Vz/F, S1 300 mg/day, n=1
Measured Metric: Vd/F (L)
Answer in L, number only, no unit symbol.

Query CNC(=O)c1nn(C)c2c1C(C)(C)Cc1cnc(Nc3ccc(N4CCN(C)CC4)cc3)nc1-2 [PHA-848125AC] yields Vd/F of 348

* * *

- Protocol Notes: Plasma pharmacokinetics
- Format: in vivo, human
- Protocol Conditions: human, plasma, oral, 150 mg/day, AUCt, S2 150 mg/day, Day 18, mean±SD, n=4
Measured Metric: AUC(0-t) (µM·h)
Answer in µM·h, number only, no unit symbol.

Query CNC(=O)c1nn(C)c2c1C(C)(C)Cc1cnc(Nc3ccc(N4CCN(C)CC4)cc3)nc1-2 [PHA-848125AC] yields AUC(0-t) of 54.6

* * *

- Protocol Notes: Plasma pharmacokinetics
- Assay type: in vivo, human
- Protocol Conditions: human, plasma, oral, 300 mg/day, Cmax, S1 300 mg/day, Day 7, n=1
Measured Metric: Cmax (µM)
Answer in µM, number only, no unit symbol.

Query CNC(=O)c1nn(C)c2c1C(C)(C)Cc1cnc(Nc3ccc(N4CCN(C)CC4)cc3)nc1-2 [PHA-848125AC] yields Cmax of 5.1

* * *

- Protocol Notes: Plasma pharmacokinetics
- Format: in vivo, human
- Protocol Conditions: human, plasma, oral, 150 mg/day, Cmax, S2 150 mg/day, Day 1, mean±SD, n=4
Measured Metric: Cmax

Query CNC(=O)c1nn(C)c2c1C(C)(C)Cc1cnc(Nc3ccc(N4CCN(C)CC4)cc3)nc1-2 [PHA-848125AC] yields Cmax of 400 nM

* * *

- Protocol Notes: Plasma pharmacokinetics
- Format: in vivo, human
- Protocol Conditions: human, plasma, oral, 200 mg/day, t1/2,z, S2 200 mg/day, mean±SD, n=3
Measured Metric: half-life (h)
Answer in h, number only, no unit symbol.

Query CNC(=O)c1nn(C)c2c1C(C)(C)Cc1cnc(Nc3ccc(N4CCN(C)CC4)cc3)nc1-2 [PHA-848125AC] yields half-life of 25.8

* * *

- Protocol Notes: Plasma pharmacokinetics
- Type: in vivo, human
- Protocol Conditions: human, plasma, oral, 200 mg/day, Cmax, S2 200 mg/day, Day 18, mean±SD, n=3
Measured Metric: Cmax (nM)
Answer in nM, number only, no unit symbol.

Query CNC(=O)c1nn(C)c2c1C(C)(C)Cc1cnc(Nc3ccc(N4CCN(C)CC4)cc3)nc1-2 [PHA-848125AC] yields Cmax of 2500

* * *

- Protocol Notes: Plasma pharmacokinetics
- Type: in vivo, human
- Protocol Conditions: human, plasma, oral, 150 mg/day, AUCt, S1 150 mg/day, Day 7, mean±SD, n=6
Measured Metric: AUC(0-t) (µM·h)
Answer in µM·h, number only, no unit symbol.

Query CNC(=O)c1nn(C)c2c1C(C)(C)Cc1cnc(Nc3ccc(N4CCN(C)CC4)cc3)nc1-2 [PHA-848125AC] yields AUC(0-t) of 46.5

* * *

- Protocol Notes: Plasma pharmacokinetics
- Assay type: in vivo, human
- Protocol Conditions: human, plasma, oral, 200 mg/day, Cmax, S2 200 mg/day, Day 1, mean±SD, n=3
Measured Metric: Cmax
In your response, the unit should come after the numeric value.

Query CNC(=O)c1nn(C)c2c1C(C)(C)Cc1cnc(Nc3ccc(N4CCN(C)CC4)cc3)nc1-2 [PHA-848125AC] yields Cmax of 1000 nM

* * *

- Protocol Notes: Plasma pharmacokinetics
- Type: in vivo, human
- Protocol Conditions: human, plasma, oral, 100 mg/day, Vz/F, S1 100 mg/day, mean±SD, n=6
Measured Metric: Vd/F (L)
Answer in L, number only, no unit symbol.

Query CNC(=O)c1nn(C)c2c1C(C)(C)Cc1cnc(Nc3ccc(N4CCN(C)CC4)cc3)nc1-2 [PHA-848125AC] yields Vd/F of 840

* * *

- Protocol Notes: Plasma pharmacokinetics
- Type: in vivo, human
- Protocol Conditions: human, plasma, oral, 150 mg/day, AUC0-24, S1 150 mg/day, Day 1, mean±SD, n=6
Measured Metric: AUC(0-t) (µM·h)
Answer in µM·h, number only, no unit symbol.

Query CNC(=O)c1nn(C)c2c1C(C)(C)Cc1cnc(Nc3ccc(N4CCN(C)CC4)cc3)nc1-2 [PHA-848125AC] yields AUC(0-t) of 8.8

* * *

- Protocol Notes: Plasma pharmacokinetics
- Format: in vivo, human
- Protocol Conditions: human, plasma, oral, 50 mg/day, t1/2,z, S1 50 mg/day, mean±SD, n=2
Measured Metric: half-life
In your response, the unit should come after the numeric value.

Query CNC(=O)c1nn(C)c2c1C(C)(C)Cc1cnc(Nc3ccc(N4CCN(C)CC4)cc3)nc1-2 [PHA-848125AC] yields half-life of 1520 min

* * *

- Protocol Notes: Plasma pharmacokinetics
- Format: in vivo, human
- Protocol Conditions: human, plasma, oral, 150 mg/day, AUC0-24, S1 150 mg/day, Day 7, mean±SD, n=6
Measured Metric: AUC(0-t) (µM·h)
Answer in µM·h, number only, no unit symbol.

Query CNC(=O)c1nn(C)c2c1C(C)(C)Cc1cnc(Nc3ccc(N4CCN(C)CC4)cc3)nc1-2 [PHA-848125AC] yields AUC(0-t) of 25

* * *

- Protocol Notes: Plasma pharmacokinetics
- Type: in vivo, human
- Protocol Conditions: human, plasma, oral, 200 mg/day, t1/2,z, S1 200 mg/day, mean±SD, n=6
Measured Metric: half-life

Query CNC(=O)c1nn(C)c2c1C(C)(C)Cc1cnc(Nc3ccc(N4CCN(C)CC4)cc3)nc1-2 [PHA-848125AC] yields half-life of 32.4 h

* * *

- Protocol Notes: Plasma pharmacokinetics
- Format: in vivo, human
- Protocol Conditions: human, plasma, oral, 100 mg/day, Cmax, S1 100 mg/day, Day 7, mean±SD, n=6
Measured Metric: Cmax (nM)
Answer in nM, number only, no unit symbol.

Query CNC(=O)c1nn(C)c2c1C(C)(C)Cc1cnc(Nc3ccc(N4CCN(C)CC4)cc3)nc1-2 [PHA-848125AC] yields Cmax of 1200

* * *

- Protocol Notes: Plasma pharmacokinetics
- Assay type: in vivo, human
- Protocol Conditions: human, plasma, oral, 150 mg/day, Cmax, S1 150 mg/day, Day 1, mean±SD, n=6
Measured Metric: Cmax (nM)
Answer in nM, number only, no unit symbol.

Query CNC(=O)c1nn(C)c2c1C(C)(C)Cc1cnc(Nc3ccc(N4CCN(C)CC4)cc3)nc1-2 [PHA-848125AC] yields Cmax of 700

* * *

- Protocol Notes: Plasma pharmacokinetics
- Type: in vivo, human
- Protocol Conditions: human, plasma, oral, 300 mg/day, AUC0-24, S1 300 mg/day, Day 7, n=1
Measured Metric: AUC(0-t) (µM·h)
Answer in µM·h, number only, no unit symbol.

Query CNC(=O)c1nn(C)c2c1C(C)(C)Cc1cnc(Nc3ccc(N4CCN(C)CC4)cc3)nc1-2 [PHA-848125AC] yields AUC(0-t) of 84

* * *

- Protocol Notes: Plasma pharmacokinetics
- Assay type: in vivo, human
- Protocol Conditions: human, plasma, oral, 150 mg/day, t1/2,z, S2 150 mg/day, mean±SD, n=4
Measured Metric: half-life (h)
Answer in h, number only, no unit symbol.

Query CNC(=O)c1nn(C)c2c1C(C)(C)Cc1cnc(Nc3ccc(N4CCN(C)CC4)cc3)nc1-2 [PHA-848125AC] yields half-life of 43.1
